# System: LNCaP cells
# ASSAY_METHOD_TEXT: Cell uptake assay of 177Lu-labeled compound
# Type: cell-based
# RUN_CONDITIONS: cell membrane fraction, 4 hr
Reported Membrane (%) values for a set of compounds
Dear colleague, please return just the value in %, with no unit written.

O=C(O)CC[C@H](NC(=O)N[C@@H](CCCCNC(=O)[C@H](Cc1c2ccccc2cc2ccccc12)Nc1c(NC23CCC(NC(=O)CN4CCN(CC(=O)O)CCN(CC(=O)O)CCN(CC(=O)O)CC4)(CC2)CC3)c(=O)c1=O)C(=O)O)C(=O)O | 27.3
O=C(O)CN1CCN(CC(=O)O)CCN(Cc2nnc([C@H]3CC[C@H](Nc4c(N[C@@H](Cc5c6ccccc6cc6ccccc56)C(=O)NCCCC[C@H](NC(=O)N[C@@H](CNC(=O)C(=O)O)C(=O)O)C(=O)O)c(=O)c4=O)CC3)o2)CCN(CC(=O)O)CC1 | 10.5
O=C(O)CN1CCN(CC(=O)O)CCN(CC(=O)N[C@H]2CC[C@H](Nc3c(N[C@@H](Cc4c5ccccc5cc5ccccc45)C(=O)NCCCC[C@H](NC(=O)N[C@@H](CNC(=O)C(=O)O)C(=O)O)C(=O)O)c(=O)c3=O)CC2)CCN(CC(=O)O)CC1 | 18.0
O=C(O)CC[C@H](NC(=O)N[C@@H](CCCCNC(=O)[C@H](Cc1ccc2ccccc2c1)Nc1c(NC23CCC(NC(=O)CN4CCN(CC(=O)O)CCN(CC(=O)O)CCN(CC(=O)O)CC4)(CC2)CC3)c(=O)c1=O)C(=O)O)C(=O)O | 10.1
O=C(O)CN1CCN(CC(=O)O)CCN(CC(=O)NCC23CCC(Nc4c(N[C@@H](Cc5c6ccccc6cc6ccccc56)C(=O)NCCCC[C@H](NC(=O)N[C@@H](CNC(=O)C(=O)O)C(=O)O)C(=O)O)c(=O)c4=O)(CC2)CC3)CCN(CC(=O)O)CC1 | 6.8

Task: Which Membrane (%) value is on record for O=C(O)CC[C@H](NC(=O)N[C@@H](CCCCNC(=O)[C@H](Cc1ccc2ccccc2c1)Nc1c(NC23CCC(CNC(=O)CN4CCN(CC(=O)O)CCN(CC(=O)O)CCN(CC(=O)O)CC4)(CC2)CC3)c(=O)c1=O)C(=O)O)C(=O)O [E1] ?
Output: 5.6

Task: `O=C(O)CCC[C@H](NC(=O)N[C@@H](CCCCNC(=O)[C@H](Cc1c2ccccc2cc2ccccc12)Nc1c(NC23CCC(NC(=O)CN4CCN(CC(=O)O)CCN(CC(=O)O)CCN(CC(=O)O)CC4)(CC2)CC3)c(=O)c1=O)C(=O)O)C(=O)O` ?
Output: 12.8

Task: And what about the compound `O=C(O)CN1CCN(CC(=O)O)CCN(CC(=O)NC23CCC(Nc4c(N[C@@H](Cc5c6ccccc6cc6ccccc56)C(=O)NCCCC[C@H](NC(=O)N[C@@H](CNC(=O)C(=O)O)C(=O)O)C(=O)O)c(=O)c4=O)(CC2)CC3)CCN(CC(=O)O)CC1` ?
Output: 12.8

Task: Repeat for the following compound: `O=C(O)CN1CCN(CC(=O)O)CCN(Cc2nnc(C34CCC(Nc5c(N[C@@H](Cc6c7ccccc7cc7ccccc67)C(=O)NCCCC[C@H](NC(=O)N[C@@H](CNC(=O)C(=O)O)C(=O)O)C(=O)O)c(=O)c5=O)(CC3)CC4)o2)CCN(CC(=O)O)CC1`
Output: 9.7

Task: Next up: `O=C(O)CCC[C@H](NC(=O)N[C@@H](CCCCNC(=O)[C@H](Cc1c2ccccc2cc2ccccc12)Nc1c(Nc2ccc3c(c2)CN(C(=O)CN2CCN(CC(=O)O)CCN(CC(=O)O)CCN(CC(=O)O)CC2)CC3)c(=O)c1=O)C(=O)O)C(=O)O`
Output: 13.8

Task: Check O=C(O)CCC[C@H](NC(=O)N[C@@H](CCNC(=O)[C@H](Cc1c2ccccc2cc2ccccc12)NC(=O)[C@H]1CC[C@H](CNC(=O)CN2CCN(CC(=O)O)CCN(CC(=O)O)CCN(CC(=O)O)CC2)CC1)C(=O)O)C(=O)O [HTK03149, reference compound] too.
Output: 3.8

Task: # repeat for O=C(O)CC[C@H](NC(=O)N[C@@H](CCCCNC(=O)[C@H](Cc1ccc2ccccc2c1)NC(=O)[C@H]1CC[C@H](CNC(=O)CN2CCN(CC(=O)O)CCN(CC(=O)O)CCN(CC(=O)O)CC2)CC1)C(=O)O)C(=O)O [PSMA-617, reference compound]
Output: 4.8

Task: # repeat for `O=C(O)CCC[C@H](NC(=O)N[C@@H](CCCCNC(=O)[C@H](Cc1c2ccccc2cc2ccccc12)Nc1c(Nc2ccc3c(c2)CCN(C(=O)CN2CCN(CC(=O)O)CCN(CC(=O)O)CCN(CC(=O)O)CC2)C3)c(=O)c1=O)C(=O)O)C(=O)O`
Output: 14.8

====

# SYSTEM_UNDER_TEST: recombinant human PSMA (rhPSMA) (Homo sapiens)
# Sequence (Q04609 whole entry): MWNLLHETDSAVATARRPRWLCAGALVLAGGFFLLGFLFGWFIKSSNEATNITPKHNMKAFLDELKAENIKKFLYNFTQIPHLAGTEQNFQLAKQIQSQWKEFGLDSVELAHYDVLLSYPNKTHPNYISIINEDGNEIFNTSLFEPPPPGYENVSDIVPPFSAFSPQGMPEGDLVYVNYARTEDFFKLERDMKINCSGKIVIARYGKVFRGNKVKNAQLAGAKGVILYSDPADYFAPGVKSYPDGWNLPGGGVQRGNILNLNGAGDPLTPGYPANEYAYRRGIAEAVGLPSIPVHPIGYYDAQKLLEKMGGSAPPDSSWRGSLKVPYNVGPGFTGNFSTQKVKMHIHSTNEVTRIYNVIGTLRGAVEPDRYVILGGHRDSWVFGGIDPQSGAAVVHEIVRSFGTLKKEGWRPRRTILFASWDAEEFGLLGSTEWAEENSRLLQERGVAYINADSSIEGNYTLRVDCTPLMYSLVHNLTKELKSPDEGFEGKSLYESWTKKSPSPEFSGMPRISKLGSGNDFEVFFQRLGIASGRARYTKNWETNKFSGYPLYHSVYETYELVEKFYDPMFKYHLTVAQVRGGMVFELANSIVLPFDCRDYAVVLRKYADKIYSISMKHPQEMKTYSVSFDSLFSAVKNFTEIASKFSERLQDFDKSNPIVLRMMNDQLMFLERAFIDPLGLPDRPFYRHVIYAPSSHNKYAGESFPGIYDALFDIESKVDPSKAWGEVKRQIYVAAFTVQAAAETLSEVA
# ASSAY_METHOD_TEXT: Naaladase assay (fluorescence-based Naaladase activity inhibition)
# RUN_CONDITIONS: rhPSMA 0.4 μg/mL, substrate N-Acetyl-Asp-Glu 40 μM, 37° C. one hour
ASSAY_METRIC: pIC50
Formally, pIC50 is defined as -log10 of the concentration c, with c in mol/L.

Examples from the recorded data:
O=C(O)CN1CCN(CC(=O)O)CCN(CC(=O)NC23CCC(Nc4cc(N[C@@H](Cc5c6ccccc6cc6ccccc56)C(=O)NCCCC[C@H](NC(=O)N[C@@H](CNC(=O)C(=O)O)C(=O)O)C(=O)O)ncn4)(CC2)CC3)CCN(CC(=O)O)CC1 | 8.31
O=C(O)CCC[C@H](NC(=O)N[C@@H](CCCCNC(=O)[C@H](Cc1c2ccccc2cc2ccccc12)Nc1c(NC23CCC(CNC(=O)CN4CCN(CC(=O)O)CCN(CC(=O)O)CCN(CC(=O)O)CC4)(CC2)CC3)c(=O)c1=O)C(=O)O)C(=O)O [E2] | 8.40
O=C(O)CN1CCN(CC(=O)O)CCN(CC(=O)NCC23CCC(Nc4c(N[C@@H](Cc5c6ccccc6cc6ccccc56)C(=O)NCCCC[C@H](NC(=O)N[C@@H](CNC(=O)C(=O)O)C(=O)O)C(=O)O)c(=O)c4=O)(CC2)CC3)CCN(CC(=O)O)CC1 | 8.92

Task: Look up pIC50: `O=C(O)CN1CCN(CC(=O)O)CCN(Cc2nnc([C@H]3CC[C@H](Nc4c(N[C@@H](Cc5c6ccccc6cc6ccccc56)C(=O)NCCCC[C@H](NC(=O)N[C@@H](CNC(=O)C(=O)O)C(=O)O)C(=O)O)c(=O)c4=O)CC3)o2)CCN(CC(=O)O)CC1`
Output: 8.77

====

# SYSTEM_UNDER_TEST: recombinant human PSMA (rhPSMA) (Homo sapiens)
# ASSAY_METHOD_TEXT: Naaladase assay (fluorescence-based Naaladase activity inhibition)
# RUN_CONDITIONS: rhPSMA 0.4 μg/mL, substrate N-Acetyl-Asp-Glu 40 μM, 37° C. one hour
Quick reference for IC50 among some compounds
Answer in nM, number only, no unit symbol.

Recorded results for 3 compounds are shown here.
O=C(O)CC[C@H](NC(=O)N[C@@H](CCCCNC(=O)[C@H](Cc1ccc2ccccc2c1)Nc1c(NC23CCC(NC(=O)CN4CCN(CC(=O)O)CCN(CC(=O)O)CCN(CC(=O)O)CC4)(CC2)CC3)c(=O)c1=O)C(=O)O)C(=O)O | 1.5
O=C(O)CN1CCN(CC(=O)O)CCN(CC(=O)NC23CCC(Nc4c(N[C@@H](Cc5ccc6ccccc6c5)C(=O)NCCCC[C@H](NC(=O)N[C@@H](CNC(=O)C(=O)O)C(=O)O)C(=O)O)c(=O)c4=O)(CC2)CC3)CCN(CC(=O)O)CC1 | 1.5
COc1nc(N[C@@H](Cc2ccc3ccccc3c2)C(=O)NCCCC[C@H](NC(=O)N[C@@H](CCC(=O)O)C(=O)O)C(=O)O)cc(NC23CCC(NC(=O)CN4CCN(CC(=O)O)CCN(CC(=O)O)CCN(CC(=O)O)CC4)(CC2)CC3)n1 | 23.1

Consider the additional compound presented here.
Task: Quick one: IC50 of `O=C(O)CC[C@H](NC(=O)N[C@@H](CCCCNC(=O)[C@H](Cc1ccc2ccccc2c1)Nc1nc(O)nc(NC23CCC(NC(=O)CN4CCN(CC(=O)O)CCN(CC(=O)O)CCN(CC(=O)O)CC4)(CC2)CC3)n1)C(=O)O)C(=O)O` ?
Output: 26.6

====

# SYSTEM_UNDER_TEST: recombinant human PSMA (rhPSMA) (Homo sapiens)
# ASSAY_METHOD_TEXT: Naaladase assay (fluorescence-based Naaladase activity inhibition)
# RUN_CONDITIONS: rhPSMA 0.4 μg/mL, substrate N-Acetyl-Asp-Glu 40 μM, 37° C. one hour
// bucketize IC50: range A = under 2 nM, range B = from 2 nM up to 4 nM, range C = 4 nM and over

// below: answered molecules
O=C(O)CN1CCN(CC(=O)O)CCN(CC(=O)NC23CCC(Nc4nnc(N[C@@H](Cc5c6ccccc6cc6ccccc56)C(=O)NCCCC[C@H](NC(=O)N[C@@H](CNC(=O)C(=O)O)C(=O)O)C(=O)O)s4)(CC2)CC3)CCN(CC(=O)O)CC1 | range C
O=C(O)CN1CCN(CC(=O)O)CCN(CC(=O)N[C@H]2CC[C@H](Nc3c(N[C@@H](Cc4c5ccccc5cc5ccccc45)C(=O)NCCCC[C@H](NC(=O)N[C@@H](CNC(=O)C(=O)O)C(=O)O)C(=O)O)c(=O)c3=O)CC2)CCN(CC(=O)O)CC1 | range A

Task: Form: Item = `O=C(O)CC[C@H](NC(=O)N[C@@H](CCCCNC(=O)[C@H](Cc1ccc2ccccc2c1)Nc1cc(NC23CCC(NC(=O)CN4CCN(CC(=O)O)CCN(CC(=O)O)CCN(CC(=O)O)CC4)(CC2)CC3)ncn1)C(=O)O)C(=O)O` ; Class = ?
Output: range C

Task: Another molecule to look at: `O=C(O)CCC[C@H](NC(=O)N[C@@H](CCCCNC(=O)[C@H](Cc1c2ccccc2cc2ccccc12)Nc1c(N[C@H]2CC[C@H](c3nnc(CN4CCN(CC(=O)O)CCN(CC(=O)O)CCN(CC(=O)O)CC4)o3)CC2)c(=O)c1=O)C(=O)O)C(=O)O`
Output: range C

Task: And `O=C(O)CCC[C@H](NC(=O)N[C@@H](CCCCNC(=O)[C@H](Cc1c2ccccc2cc2ccccc12)Nc1c(Nc2ccc3c(c2)CCN(C(=O)CN2CCN(CC(=O)O)CCN(CC(=O)O)CCN(CC(=O)O)CC2)C3)c(=O)c1=O)C(=O)O)C(=O)O` ?
Output: range A

Task: And `O=C(O)CCC[C@H](NC(=O)N[C@@H](CCCCNC(=O)[C@H](Cc1c2ccccc2cc2ccccc12)Nc1c(Nc2ccc3c(c2)CN(C(=O)CN2CCN(CC(=O)O)CCN(CC(=O)O)CCN(CC(=O)O)CC2)CC3)c(=O)c1=O)C(=O)O)C(=O)O` ?
Output: range A
